As shown below, each of these compounds has a reported IC50 value.
# measured_target: Prostaglandin G/H synthase 2 (Mus musculus, UniProt Q05769, F343L)
# Sequence (Q05769 18-604 F343L limits assumed): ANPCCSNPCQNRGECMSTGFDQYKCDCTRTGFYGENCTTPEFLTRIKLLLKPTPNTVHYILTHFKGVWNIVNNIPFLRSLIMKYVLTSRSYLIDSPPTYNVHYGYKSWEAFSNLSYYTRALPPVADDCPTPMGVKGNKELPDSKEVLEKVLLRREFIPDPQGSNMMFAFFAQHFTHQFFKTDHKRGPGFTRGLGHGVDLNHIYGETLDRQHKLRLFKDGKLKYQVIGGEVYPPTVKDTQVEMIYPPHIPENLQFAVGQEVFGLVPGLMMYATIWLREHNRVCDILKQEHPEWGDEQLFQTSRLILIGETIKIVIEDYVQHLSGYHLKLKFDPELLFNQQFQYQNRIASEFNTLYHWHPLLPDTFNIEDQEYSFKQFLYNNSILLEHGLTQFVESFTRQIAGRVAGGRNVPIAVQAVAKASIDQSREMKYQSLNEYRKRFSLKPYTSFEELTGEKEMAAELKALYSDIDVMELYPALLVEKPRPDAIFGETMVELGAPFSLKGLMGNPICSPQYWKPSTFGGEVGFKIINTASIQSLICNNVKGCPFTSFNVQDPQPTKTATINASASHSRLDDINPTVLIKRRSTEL
# method_notes: Inhibitory concentration against F357L mutant murine Prostaglandin G/H synthase 2
Please append the unit to your numeric answer.

response.value for "COc1ccc2c(c1)c(CC(=O)N[C@@H](C)CO)c(C)n2C(=O)c1ccc(Cl)cc1" (field: IC50) = 0.25 µM

The compound identified as "COc1ccc2c(c1)c(CC(=O)N[C@H](C)CO)c(C)n2C(=O)c1ccc(Cl)cc1" registered its IC50 at 0.25 µM

###

This listing pairs compounds with measured pIC50.
# measured_target: Prostaglandin G/H synthase 2 (Mus musculus, UniProt Q05769, S105V/Y101L)
# Sequence (Q05769 18-604 Y101L/S105V limits assumed): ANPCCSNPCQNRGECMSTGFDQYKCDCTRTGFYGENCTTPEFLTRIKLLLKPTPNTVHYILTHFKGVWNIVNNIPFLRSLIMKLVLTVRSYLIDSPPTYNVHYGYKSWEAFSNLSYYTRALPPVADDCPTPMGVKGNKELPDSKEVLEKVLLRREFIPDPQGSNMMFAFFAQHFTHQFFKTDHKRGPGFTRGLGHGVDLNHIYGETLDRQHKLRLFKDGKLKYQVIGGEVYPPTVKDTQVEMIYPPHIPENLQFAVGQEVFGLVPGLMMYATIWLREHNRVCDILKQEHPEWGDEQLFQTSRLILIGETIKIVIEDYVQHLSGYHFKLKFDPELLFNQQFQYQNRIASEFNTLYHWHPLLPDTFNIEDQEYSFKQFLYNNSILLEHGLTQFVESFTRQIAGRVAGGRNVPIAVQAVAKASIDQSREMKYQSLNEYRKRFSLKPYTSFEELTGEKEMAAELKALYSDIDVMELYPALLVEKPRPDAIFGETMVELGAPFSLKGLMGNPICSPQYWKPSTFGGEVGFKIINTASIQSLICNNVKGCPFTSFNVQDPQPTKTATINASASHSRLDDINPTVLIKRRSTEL
# method_notes: Inhibitory concentration against Y115L/S119V mutant murine Prostaglandin G/H synthase 2
In textbook form, pIC50 equals minus log to base ten of the concentration in mol/L.

>>> quantitative_result("COc1ccc2c(c1)c(CC(=O)N[C@@H](C)CO)c(C)n2C(=O)c1ccc(Cl)cc1")
6.68

Next item in the queue.
Lab note: "COc1ccc2c(c1)c(CC(=O)N[C@H](C)CO)c(C)n2C(=O)c1ccc(Cl)cc1" gave pIC50 of 6.54

meta.source: ChEMBL document CHEMBL1135305
